For reference, the following Ki results for Beta-secretase 2 (Homo sapiens, UniProt Q9Y5Z0) were taken from various sources.
experimentalEndpoint: Ki (nM)

Some entries whose results are on file:
compoundsmiles=CN1C(=N)N[C@@]2(c3cc(OCC4CCC4)ccc3F)CO[C@@H](C3CC3)C[C@H]2C1=O targetundertest="Beta-secretase 2 (Homo sapiens, UniProt Q9Y5Z0)" readoutnumber=20
compoundsmiles=C[C@@]1(c2cc(Nc3nccc4cc(Cl)cnc34)ncc2F)CS(=O)(=O)[C@@](C)(C2CC2)C(N)=N1 targetundertest="Beta-secretase 2 (Homo sapiens, UniProt Q9Y5Z0)" readoutnumber=2.9
compoundsmiles=Cc1cn(C)nc1C(=O)Nc1ccc2c(c1)[C@]1(CCO2)CS(=O)(=O)C(C)(C)C(=N)N1 targetundertest="Beta-secretase 2 (Homo sapiens, UniProt Q9Y5Z0)" readoutnumber=1
compoundsmiles=CC1(C)C(=N)N[C@@]2(COCc3ccc(NC(=O)c4cnsn4)cc32)CS1(=O)=O targetundertest="Beta-secretase 2 (Homo sapiens, UniProt Q9Y5Z0)" readoutnumber=23
compoundsmiles=CN1C(=N)N[C@](C)(c2sc(-c3nnc(-c4ccc5scnc5c4)o3)cc2Cl)CS1(=O)=O targetundertest="Beta-secretase 2 (Homo sapiens, UniProt Q9Y5Z0)" readoutnumber=336
compoundsmiles=CN1C(=N)N[C@](C)(c2sc3c(-c4coc(-c5ccc(F)cc5)n4)cccc3c2F)CS1(=O)=O targetundertest="Beta-secretase 2 (Homo sapiens, UniProt Q9Y5Z0)" readoutnumber=2940
compoundsmiles=Cc1nc2cc(-c3nnc(-c4cc(Cl)c([C@]5(C)CS(=O)(=O)N(C)C(=N)N5)s4)o3)ccc2s1 targetundertest="Beta-secretase 2 (Homo sapiens, UniProt Q9Y5Z0)" readoutnumber=1150

a: CN1C(=N)N[C@](C)(c2cc(-c3nnc(-c4ccon4)o3)ccc2F)CS1(=O)=O
b: CN1C(=N)N[C@](C)(c2cc(NC(=O)c3ccc(Cl)cn3)ccc2F)CS1(=O)=O
c: C[C@H]1C[C@@H]2[C@](c3cc(OCC4CC4)ccc3F)(CO1)NC(=N)N(C)S2(=O)=O
d: CN=[S@@]1(=O)C[C@@](C)(c2cc(Nc3ncnc4cc(Br)cnc34)ccc2F)NC(=N)C1(C)C
e: CC1(C)C(=N)N[C@@]2(COCc3ccc(NC(=O)c4ccn(C(F)F)n4)cc32)CS1(=O)=O
Req: Falling order of Ki, please. Answer format: the labels, in the requested order.
Resp: a, c, e, d, b
(a: 737 nM, c: 4.3 nM, e: 2 nM, d: 1 nM, b: 0.22 nM)
